Test system: L1210 leukemia ip in BDF1 mice, survival T/C
protocol.summary: NCI In Vivo Anticancer Drug Screen. Data for tumor model L1210 Leukemia (intraperitoneal) in B6D2F1 (BDF1) mice
test.context: endpoint: mean survival time; dose: 100.0 mg/kg/injection; schedule: Q04DX003 (ip); vehicle: saline
Inconclusive results and toxic doses are left out. Rule as the data show it: active = T/C of 150% or more; inactive = T/C below 125%.
Output constraint: value belongs to active, inactive

Solved cases (3 shown):
compound: O=C(Oc1ccc([N+](=O)[O-])cc1)c1ccc(C[P+](c2ccccc2)(c2ccccc2)c2ccccc2)cc1
label: inactive

compound: NNC(=O)CCCCCC(=O)NN
label: inactive

compound: Br/C=C\c1ccccc1
label: inactive

Ask | GET /call?item= "CC(C)SC=O" returns the recorded outcome of this test.
Reply | inactive

Ask | Recorded call for CCCCOP(=O)(OCCCC)OC(C)C(C)=O (stereo not drawn) ?
Reply | inactive

Ask | // outcome(item) with item = "Cc1nc2n[nH]c(N)c2nc1C"
Reply | inactive
